Entries annotated with measured RLU
target_or_system: human TAS2R14 (Homo sapiens, UniProt Q9NYV8)
Construct: expressed in transfected cells; host or cells: HEK293T-Gα16gust44
Sequence (Q9NYV8 whole entry): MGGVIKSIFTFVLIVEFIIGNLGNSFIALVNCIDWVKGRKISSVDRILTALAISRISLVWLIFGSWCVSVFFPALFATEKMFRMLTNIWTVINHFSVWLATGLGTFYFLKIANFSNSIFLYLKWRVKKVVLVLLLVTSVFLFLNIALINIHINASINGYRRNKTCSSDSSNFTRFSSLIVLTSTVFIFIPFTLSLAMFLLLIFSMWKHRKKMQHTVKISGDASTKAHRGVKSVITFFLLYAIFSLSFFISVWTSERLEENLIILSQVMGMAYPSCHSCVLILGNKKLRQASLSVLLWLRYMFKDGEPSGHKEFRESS
experiment_summary: Calcium imaging assay (FLIPR), HEK293T-Gα16gust44 cells transfected with human TAS2R14
Type: cell-based
protocol_conditions: TAS2R14 trace; Time (s) 110.797 (Chenodeoxycholic Acid 110.781)

Look over these answered cases.
compound: C[C@H](CCC(=O)NCC(=O)O)[C@H]1CC[C@H]2[C@@H]3[C@H](O)C[C@@H]4C[C@H](O)CC[C@]4(C)[C@H]3C[C@H](O)[C@]12C [Glycocholic Acid, glycocholic acid]
RLU: 929.16 RLU
//
compound: C[C@H](CCC(=O)O)[C@H]1CC[C@H]2[C@@H]3[C@H](O)C[C@@H]4C[C@H](O)CC[C@]4(C)[C@H]3C[C@H](O)[C@]12C [Cholic Acid, cholic acid]
RLU: 1242.72 RLU
//
compound: C[C@H](CCC(=O)NCCS(=O)(=O)O)[C@H]1CC[C@H]2[C@@H]3CC[C@@H]4C[C@H](O)CC[C@]4(C)[C@H]3CC[C@]12C [Taurolithocholic Acid, taurolithocholic acid]
RLU: 335.334 RLU

Q. Would you mind telling me what RLU value was observed for C[C@H](CCC(=O)O)[C@H]1CC[C@H]2[C@@H]3[C@H](O)C[C@@H]4C[C@H](O)CC[C@]4(C)[C@H]3CC[C@]12C [Chenodeoxycholic Acid, chenodeoxycholic acid] ?
A. 586.278 RLU

Q. Would you mind telling me what RLU value was observed for C[C@H](CCC(=O)NCCS(=O)(=O)O)[C@H]1CC[C@H]2[C@@H]3[C@H](O)C[C@@H]4C[C@H](O)CC[C@]4(C)[C@H]3C[C@H](O)[C@]12C [Taurocholic Acid, taurocholic acid] ?
A. 935.64 RLU

* * *

Entries annotated with measured RLU
target_or_system: human TAS2R1 (Homo sapiens)
Construct: expressed in transfected cells; host or cells: HEK293T-Gα16gust44
experiment_summary: Calcium imaging assay (FLIPR), HEK293T-Gα16gust44 cells transfected with human TAS2R1
Format: cell-based
protocol_conditions: Time 90.796 s
Write the value in RLU as a bare number.

Look over these answered cases.
smiles_structure: C[C@H](CCC(=O)O)[C@H]1CC[C@H]2[C@@H]3[C@H](O)C[C@@H]4C[C@H](O)CC[C@]4(C)[C@H]3CC[C@]12C
RLU [RLU]: 748.006
--
smiles_structure: C[C@H](CCC(=O)O)[C@H]1CC[C@H]2[C@@H]3[C@H](O)C[C@@H]4C[C@H](O)CC[C@]4(C)[C@H]3C[C@H](O)[C@]12C
RLU [RLU]: 671.255

Q. Would you mind telling me what RLU value was observed for "C[C@H](CCC(=O)O)[C@H]1CC[C@H]2[C@@H]3CC[C@@H]4C[C@H](O)CC[C@]4(C)[C@H]3CC[C@]12C" ?
A. 877.458

Q. Would you mind telling me what RLU value was observed for "C[C@H](CCC(=O)O)[C@H]1CC[C@H]2[C@@H]3[C@@H](O)C[C@@H]4C[C@H](O)CC[C@]4(C)[C@H]3CC[C@]12C" ?
A. 528.103

* * *

target_or_system: human TAS2R1 (Homo sapiens, UniProt Q9NYW7)
Construct: expressed in transfected cells; host or cells: HEK293T-Gα16gust44
Sequence (Q9NYW7 whole entry): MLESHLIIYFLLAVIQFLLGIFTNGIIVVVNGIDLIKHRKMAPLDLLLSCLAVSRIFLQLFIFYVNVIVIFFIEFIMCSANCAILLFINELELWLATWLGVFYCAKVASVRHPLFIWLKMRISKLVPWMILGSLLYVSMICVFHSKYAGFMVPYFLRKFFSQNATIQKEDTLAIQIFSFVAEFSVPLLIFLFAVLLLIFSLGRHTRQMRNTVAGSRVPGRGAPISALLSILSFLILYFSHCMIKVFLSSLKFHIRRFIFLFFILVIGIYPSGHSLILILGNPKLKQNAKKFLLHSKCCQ
experiment_summary: Calcium imaging assay (FLIPR), HEK293T-Gα16gust44 cells transfected with human TAS2R1
Type: cell-based
protocol_conditions: Time 94.796 s
experimental_readout: RLU (RLU)
Write the value in RLU as a bare number.

Look over these answered cases.
compound: C[C@H](CCC(=O)O)[C@H]1CC[C@H]2[C@@H]3CC[C@@H]4C[C@H](O)CC[C@]4(C)[C@H]3CC[C@]12C [Lithocholic Acid, lithocholic acid]
unit_label: RLU
RLU: 920.191

compound: C[C@H](CCC(=O)O)[C@H]1CC[C@H]2[C@@H]3[C@@H](O)C[C@@H]4C[C@H](O)CC[C@]4(C)[C@H]3CC[C@]12C [Ursodeoxycholic Acid, ursodeoxycholic acid]
unit_label: RLU
RLU: 507.179

compound: C[C@H](CCC(=O)O)[C@H]1CC[C@H]2[C@@H]3[C@H](O)C[C@@H]4C[C@H](O)CC[C@]4(C)[C@H]3C[C@H](O)[C@]12C [Cholic Acid, cholic acid]
unit_label: RLU
RLU: 658.13

Please look at the following compound next.
Q. Fill in the recorded RLU for this compound, with human TAS2R1 (Homo sapiens, UniProt Q9NYW7) as test system: C[C@H](CCC(=O)O)[C@H]1CC[C@H]2[C@@H]3[C@H](O)C[C@@H]4C[C@H](O)CC[C@]4(C)[C@H]3CC[C@]12C [Chenodeoxycholic Acid, chenodeoxycholic acid]
A. 735.827

The values you see were collected from paper PMC10247784.
